The binders listed here are annotated with their kon.
Molecular target: T1, shFcRn (soluble human FcRn) (human, UniProt P55899 24-297; P61769 21-119)
T1 construct: extracellular domain; Printed only as 'soluble human FcRn'; also called hFcRn (immobilized on a chip)
T1 sequence (P55899 24-297 limits assumed, chain 1 of 2): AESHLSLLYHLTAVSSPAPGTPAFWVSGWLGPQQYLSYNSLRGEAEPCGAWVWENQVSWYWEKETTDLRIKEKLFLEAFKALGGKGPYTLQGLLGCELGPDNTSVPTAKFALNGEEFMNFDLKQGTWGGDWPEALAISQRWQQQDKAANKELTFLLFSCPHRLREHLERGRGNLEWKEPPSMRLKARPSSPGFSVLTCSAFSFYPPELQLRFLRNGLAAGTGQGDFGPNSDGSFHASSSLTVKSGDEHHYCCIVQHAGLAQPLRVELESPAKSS
T1 sequence (P61769 21-119 limits assumed, chain 2 of 2): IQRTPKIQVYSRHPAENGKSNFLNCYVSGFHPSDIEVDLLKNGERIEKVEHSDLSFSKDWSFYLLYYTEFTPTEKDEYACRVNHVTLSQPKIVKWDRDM
Test: SPR, shFcRn immobilized on chip, antibody as analyte, pH 7.4;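 also: kinetics fitted with a 1:1 Langmuir model, association 200 s and dissociation 600 s in PBST, double-referenced against buffer-only and interspot signals, values averaged over repeated runs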
Give your result in M⁻¹ s⁻¹ as a bare value.

[ask] # get_value(readout='kon', item= HL161AN variant No. 16 (LC:N25Q, HC:Q82E) (antibody, human IgG1, V domains shown, Variable domains only) VL: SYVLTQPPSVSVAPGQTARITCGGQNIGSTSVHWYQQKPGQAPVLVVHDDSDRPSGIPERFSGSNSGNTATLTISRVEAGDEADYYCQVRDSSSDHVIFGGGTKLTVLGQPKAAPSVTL VH: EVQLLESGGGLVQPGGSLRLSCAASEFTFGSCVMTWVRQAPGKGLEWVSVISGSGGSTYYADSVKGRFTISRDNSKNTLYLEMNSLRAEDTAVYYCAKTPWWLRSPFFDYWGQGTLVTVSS )
[reply] 1.86e+06

[ask] # get_value(readout='kon', item= HL161AN variant No. 1 (LC:N25S, HC:C32S) (antibody, V domains shown, also called HL161ANS; #1 (HL161ANS)) VL: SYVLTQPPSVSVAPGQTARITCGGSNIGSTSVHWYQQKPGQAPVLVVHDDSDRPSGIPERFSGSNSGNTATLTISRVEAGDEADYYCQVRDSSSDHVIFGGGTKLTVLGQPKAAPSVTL VH: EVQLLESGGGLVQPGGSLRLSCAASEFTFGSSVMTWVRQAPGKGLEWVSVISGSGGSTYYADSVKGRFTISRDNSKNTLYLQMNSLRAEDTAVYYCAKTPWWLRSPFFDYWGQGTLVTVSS )
[reply] 3.22e+06
